Taken from patent US11753446B2.

# Test system: Acinetobacter baumannii DSM 30008
# Assay type: cell-based
# Stated conditions: DSM 30008
Where a SMILES comes first, the peptide text is derived from it. Bridges are numbered along the chain shown (N, C = ends). [ ]: non-standard residue; d: D form. Ala(cPent) = N[C@@H](CC1CCCC1)C(=O)O; Tle = CC(C)(C)[C@H](N)C(=O)O; dDab = NCC[C@@H](N)C(=O)O; Orn = NCCC[C@H](N)C(=O)O; Dab = NCC[C@H](N)C(=O)O; Dap = NC[C@H](N)C(=O)O
Entries and their measured Acinetobacter baumannii DSM 30008 MIC follow.
# include the unit after the value

Known Acinetobacter baumannii DSM 30008 MIC results, listed for orientation:
q: Given the entry CC(C)[C@@H]1NC(=O)[C@@H]2CSSC[C@H](NC(=O)[C@H](CC3CCCC3)NC(=O)[C@H](CCCNC(=N)N)NC(=O)[C@@H](CCN)NC1=O)C(=O)N[C@@H](Cc1ccc(O)cc1)C(=O)N[C@@H](CC(N)=O)C(=O)N[C@@H](CCCN)C(=O)N[C@H](CCN)C(=O)N[C@@H](CCN)C(=O)N[C@@H](Cc1c[nH]c3ccccc13)C(=O)N[C@@H](CO)C(=O)N[C@@H](Cc1ccc(O)cc1)C(=O)N2 [Example 58] (cyclo([Ala(cPent)]CYN[Orn][dDab][Dab]WSYCV[dDab]R); disulfide 2-11) , report its measured Acinetobacter baumannii DSM 30008 MIC.
a: 0.625 µg/mL

q: Also need CC(C)C[C@@H]1NC(=O)[C@H](CCN)NC(=O)[C@@H](CCN)NC(=O)[C@H]([C@@H](C)O)NC(=O)[C@@H]2CCNC(=O)C[C@H](NC1=O)C(=O)N[C@@H](Cc1ccc(O)cc1)C(=O)N[C@@H](CC(N)=O)C(=O)N[C@@H](CCCN)C(=O)N[C@H](CCN)C(=O)N[C@@H](CCN)C(=O)N[C@@H](Cc1c[nH]c3ccccc13)C(=O)N[C@@H](CO)C(=O)N[C@@H](C(C)(C)C)C(=O)N2 [Example 76] (cyclo(LDYN[Orn][dDab][Dab]WS[Tle][Dab]T[dDab][Dab]); lactam 2-11) , thanks.
a: 1.5 µg/mL

Further cases:
q: Given the entry CC(C)[C@@H]1NC(=O)[C@@H]2CCCN2C(=O)[C@@H]([C@H](C)O)NC(=O)[C@H]([C@@H](C)O)NC(=O)[C@@H]2CC(=O)NCC[C@H](NC1=O)C(=O)N[C@@H](Cc1ccc(O)cc1)C(=O)N[C@@H](CCN)C(=O)N[C@@H](CN)C(=O)N[C@H](CCN)C(=O)N[C@@H](CCN)C(=O)N[C@@H](Cc1c[nH]c3ccccc13)C(=O)N[C@@H](CCN)C(=O)N[C@@H](C(C)(C)C)C(=O)N2 [Example 29] (cyclo(V[Dab]Y[Dab][Dap][dDab][Dab]W[Dab][Tle]DT[dT]P); lactam 2-11) , report its measured Acinetobacter baumannii DSM 30008 MIC.
a: 1 µg/mL

* * *

# System: human red blood cells (hRBC)
# Assay: Hemolysis: hemolytic activity at 100 μg/mL, 1 h at 37° C.
# Stated conditions: red cells of human, 1 h, 100
Where a SMILES comes first, the peptide text is derived from it. Bridges are numbered along the chain shown (N, C = ends). [ ]: non-standard residue; d: D form. Tle = CC(C)(C)[C@H](N)C(=O)O; dDab = NCC[C@@H](N)C(=O)O; NMeA = CN[C@@H](C)C(=O)O; Orn = NCCC[C@H](N)C(=O)O; Dab = NCC[C@H](N)C(=O)O; Dap = NC[C@H](N)C(=O)O
Assay endpoint: Hemolysis at 100 μg/mL (%)
Record the value in %, omitting the unit from your answer.

q: Param readout = Hemolysis at 100 μg/mL; param system = human red blood cells (hRBC); param query = CC(C)[C@@H]1NC(=O)[C@H](C)N(C)C(=O)[C@H]2CCCN2C(=O)[C@H](CO)NC(=O)[C@H](C)NC(=O)[C@H](C(C)(C)C)NC(=O)[C@H](CCN)NC(=O)[C@H](Cc2c[nH]c3ccccc23)NC(=O)[C@H](CCN)NC(=O)[C@@H](CCN)NC(=O)[C@H](CN)NC(=O)[C@H](CCN)NC(=O)[C@H](Cc2ccc(O)cc2)NC(=O)[C@H](CO)NC1=O [Example 44] (cyclo(AS[dP][NMeA]VSY[Dab][Dap][dDab][Dab]W[Dab][Tle])) ; response: value
a: 1

Now turn to the next compound.
q: Param readout = Hemolysis at 100 μg/mL; param system = human red blood cells (hRBC); param query = CC[C@H](C)[C@@H]1NC(=O)[C@@H]2CCCN2C(=O)[C@@H](CCN)NC(=O)[C@H](CO)NC(=O)[C@@H]2CSSC[C@H](NC1=O)C(=O)N[C@@H](Cc1ccc(O)cc1)C(=O)N[C@@H](CCN)C(=O)N[C@@H](CCCN)C(=O)N[C@H](CCN)C(=O)N[C@@H](CCN)C(=O)N[C@@H](Cc1c[nH]c3ccccc13)C(=O)N[C@@H](CCN)C(=O)N[C@@H](C(C)(C)C)C(=O)N2 [Example 14] (cyclo(CS[dDab]PICY[Dab][Orn][dDab][Dab]W[Dab][Tle]); disulfide 1-6) ; response: value
a: 1

* * *

# Test system: Acinetobacter baumannii DSM 30008
# Assay type: cell-based
# Stated conditions: DSM 30008
Where a SMILES comes first, the peptide text is derived from it. Bridges are numbered along the chain shown (N, C = ends). [ ]: non-standard residue; d: D form. Tle = CC(C)(C)[C@H](N)C(=O)O; dDab = NCC[C@@H](N)C(=O)O; Orn = NCCC[C@H](N)C(=O)O; Dab = NCC[C@H](N)C(=O)O
Assay endpoint: Acinetobacter baumannii DSM 30008 MIC (mg/L)
Record the value in mg/L, omitting the unit from your answer.

q: Given the entry CC(C)C[C@@H]1NC(=O)[C@H](CCN)NC(=O)[C@@H](CCN)NC(=O)[C@H](CCCN)NC(=O)[C@H](CC(N)=O)NC(=O)[C@H](Cc2ccc(O)cc2)NC(=O)[C@@H]2CSSC[C@H](NC(=O)[C@H](C(C)(C)C)NC(=O)[C@H](CO)NC1=O)C(=O)N[C@@H](C(C)C)C(=O)N[C@H](CCN)C(=O)N[C@@H](CCCNC(=N)N)C(=O)N[C@@H](CC(C)C)C(=O)N2 [Example 4] (cyclo(CV[dDab]RLCYN[Orn][dDab][Dab]LS[Tle]); disulfide 1-6) , report its measured Acinetobacter baumannii DSM 30008 MIC.
a: 0.25

* * *

# Test system: human red blood cells (hRBC)
# Assay: Hemolysis: hemolytic activity at 100 μg/mL, 1 h at 37° C.
# Stated conditions: red cells of human, 1 h, 100
Where a SMILES comes first, the peptide text is derived from it. Bridges are numbered along the chain shown (N, C = ends). [ ]: non-standard residue; d: D form. Ala(cPent) = N[C@@H](CC1CCCC1)C(=O)O; Tle = CC(C)(C)[C@H](N)C(=O)O; dDab = NCC[C@@H](N)C(=O)O; NMeA = CN[C@@H](C)C(=O)O; Orn = NCCC[C@H](N)C(=O)O; Dab = NCC[C@H](N)C(=O)O; Dap = NC[C@H](N)C(=O)O
Assay endpoint: Hemolysis at 100 μg/mL (%)
Record the value in %, omitting the unit from your answer.

q: Given the entry CC(C)[C@@H]1NC(=O)[C@@H]2CCCN2C(=O)[C@H](C)N(C)C(=O)[C@H](CO)NC(=O)[C@@H]2CSSC[C@H](NC1=O)C(=O)N[C@@H](Cc1ccc(O)cc1)C(=O)N[C@@H](CCN)C(=O)N[C@@H](CN)C(=O)N[C@H](CCN)C(=O)N[C@@H](CCN)C(=O)N[C@@H](Cc1c[nH]c3ccccc13)C(=O)N[C@@H](CCN)C(=O)N[C@@H](C(C)(C)C)C(=O)N2 [Example 9] (cyclo(CS[NMeA]PVCY[Dab][Dap][dDab][Dab]W[Dab][Tle]); disulfide 1-6) , report its measured Hemolysis at 100 μg/mL.
a: 2

q: Also need C[C@@H]1NC(=O)[C@H](C(C)(C)C)NC(=O)[C@H](CCN)NC(=O)[C@H](Cc2c[nH]c3ccccc23)NC(=O)[C@H](CCN)NC(=O)[C@@H](CCN)NC(=O)[C@H](CCCN)NC(=O)[C@H](CCN)NC(=O)[C@H](Cc2ccc(O)cc2)NC(=O)[C@H](CN)NC(=O)[C@H](Cc2ccccc2)NC(=O)[C@@H]2CCCN2C(=O)[C@@H](CCN)NC(=O)[C@H](CO)NC1=O [Example 50] (cyclo(AS[dDab]PF[Dap]Y[Dab][Orn][dDab][Dab]W[Dab][Tle])) , thanks.
a: 11

q: Also need CC(C)C[C@@H]1NC(=O)[C@H](CCN)NC(=O)[C@@H](CCN)NC(=O)[C@H]([C@@H](C)O)NC(=O)[C@@H]2CCNC(=O)C[C@H](NC1=O)C(=O)N[C@@H](Cc1ccc(O)cc1)C(=O)N[C@@H](CC(N)=O)C(=O)N[C@@H](CCCN)C(=O)N[C@H](CCN)C(=O)N[C@@H](CCN)C(=O)N[C@@H](Cc1c[nH]c3ccccc13)C(=O)N[C@@H](CO)C(=O)N[C@@H](C(C)(C)C)C(=O)N2 [Example 76] (cyclo(LDYN[Orn][dDab][Dab]WS[Tle][Dab]T[dDab][Dab]); lactam 2-11) , thanks.
a: 2

q: Also need CC(C)[C@@H]1NC(=O)[C@@H]2CSSC[C@H](NC(=O)[C@H](CC3CCCC3)NC(=O)[C@H](CCCNC(=N)N)NC(=O)[C@@H](CCN)NC1=O)C(=O)N[C@@H](Cc1ccc(O)cc1)C(=O)N[C@@H](CC(N)=O)C(=O)N[C@@H](CCCN)C(=O)N[C@H](CCN)C(=O)N[C@@H](CCN)C(=O)N[C@@H](Cc1c[nH]c3ccccc13)C(=O)N[C@@H](CO)C(=O)N[C@@H](Cc1ccc(O)cc1)C(=O)N2 [Example 58] (cyclo([Ala(cPent)]CYN[Orn][dDab][Dab]WSYCV[dDab]R); disulfide 2-11) , thanks.
a: 3

q: Also need CC(C)C[C@@H]1NC(=O)[C@H](CN)NC(=O)[C@@H](CCN)NC(=O)[C@H](C(C)C)NC(=O)[C@@H]2CSSC[C@H](NC1=O)C(=O)N[C@@H](Cc1ccc(O)cc1)C(=O)N[C@@H](CC(N)=O)C(=O)N[C@@H](CCCN)C(=O)N[C@H](CCN)C(=O)N[C@@H](CCN)C(=O)N[C@@H](Cc1c[nH]c3ccccc13)C(=O)N[C@@H](CO)C(=O)N[C@@H](Cc1ccc(O)cc1)C(=O)N2 [Example 68] (cyclo(CV[dDab][Dap]LCYN[Orn][dDab][Dab]WSY); disulfide 1-6) , thanks.
a: 1

q: Also need CC(C)C[C@@H]1NC(=O)[C@H](CCCNC(=N)N)NC(=O)[C@@H](CCN)NC(=O)[C@H](C(C)C)NC(=O)[C@@H]2CSSC[C@H](NC1=O)C(=O)N[C@@H](Cc1ccc(O)cc1)C(=O)N[C@@H](CN)C(=O)N[C@@H](CCCN)C(=O)N[C@H](CCN)C(=O)N[C@@H](CCN)C(=O)N[C@@H](Cc1c[nH]c3ccccc13)C(=O)N[C@@H](CO)C(=O)N[C@@H](Cc1ccc(O)cc1)C(=O)N2 [Example 72] (cyclo(CV[dDab]RLCY[Dap][Orn][dDab][Dab]WSY); disulfide 1-6) , thanks.
a: 3
